Origin of values: the supplement of paper PMC6757056

Below: a set of entries, each annotated with reported FACS-Seq fitted mean (log10).
B1: library; a variant is named by its letters at N, in order (parent)
chain: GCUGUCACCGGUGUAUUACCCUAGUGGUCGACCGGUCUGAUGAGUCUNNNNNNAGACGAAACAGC

Variants of: B1
Test: FACS-Seq fitted mean relative fluorescence mCherry/BFP with ligand (log10 relative fluorescence); ligand: hypoxanthine (xanthine aptamer); ligand concentration (+) FACS-Seq: 5 mM; higher = higher reporter protein expression
Conditions: HEK293T, ligand present: yes

Here is how some variants turned out for FACS-Seq fitted mean (log10).
Query :: // lookup FACS-Seq fitted mean (log10) for `GUGAGG`
Result :: 0.598

Query :: Value lookup for FACS-Seq fitted mean (log10); key = `GAUGGC`
Result :: 0.596

Query :: Quick one: FACS-Seq fitted mean (log10) of `GGAAUA` ?
Result :: 0.588

Continuing:
Query :: What measured FACS-Seq fitted mean (log10) goes with `GAGCAA` ?
Result :: 0.596

Query :: So what's the measured FACS-Seq fitted mean (log10) for this one? `AUUUGA`
Result :: 0.602
